The compounds listed here are annotated with their IC50.
Target chain: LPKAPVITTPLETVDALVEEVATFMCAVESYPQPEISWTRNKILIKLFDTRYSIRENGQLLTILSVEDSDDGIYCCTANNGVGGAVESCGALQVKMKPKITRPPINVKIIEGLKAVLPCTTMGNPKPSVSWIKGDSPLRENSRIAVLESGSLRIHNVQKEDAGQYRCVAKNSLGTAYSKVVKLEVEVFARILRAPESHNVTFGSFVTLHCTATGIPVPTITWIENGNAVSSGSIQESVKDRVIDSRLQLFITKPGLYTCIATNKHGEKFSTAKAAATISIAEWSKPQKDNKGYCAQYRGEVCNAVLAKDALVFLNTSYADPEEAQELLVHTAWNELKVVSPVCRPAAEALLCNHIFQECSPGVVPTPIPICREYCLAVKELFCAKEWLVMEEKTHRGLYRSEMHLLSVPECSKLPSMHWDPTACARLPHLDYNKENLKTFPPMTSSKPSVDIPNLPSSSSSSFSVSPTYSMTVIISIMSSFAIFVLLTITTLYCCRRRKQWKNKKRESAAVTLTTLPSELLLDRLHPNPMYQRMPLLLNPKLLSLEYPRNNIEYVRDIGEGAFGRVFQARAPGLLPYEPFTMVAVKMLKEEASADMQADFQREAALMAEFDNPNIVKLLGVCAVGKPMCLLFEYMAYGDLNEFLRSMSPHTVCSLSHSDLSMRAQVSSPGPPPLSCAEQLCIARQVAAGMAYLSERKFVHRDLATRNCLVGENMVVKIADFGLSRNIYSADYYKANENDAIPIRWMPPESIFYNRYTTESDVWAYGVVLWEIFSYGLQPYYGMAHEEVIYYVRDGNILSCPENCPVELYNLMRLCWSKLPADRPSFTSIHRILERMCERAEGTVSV
Readout name: IC50 (µM)

# Compound, Numeric result
measured = [
    ("COc1cc(N2CCC(N3CCN(C)CC3)CC2)ccc1Nc1ncnc(Nc2ccccc2S(=O)(=O)C(C)C)n1", 1.5),
    ("COc1cc(N2CCC(N3CCN(C)CC3)CC2)ccc1Nc1ncnc(Nc2ccccc2S(=O)(=O)N(C)C)n1", 1.8),
    ("CCNS(=O)(=O)c1ccccc1Nc1ncnc(Nc2ccc(N3CCC(N4CCN(C)CC4)CC3)cc2OC)n1", 1.1),
]

====

The compounds listed here are annotated with their pIC50.
System: human non-small cell lung cancer cell line NCI-H2228 cells (EML4-ALK fusion protein-expressing cells)
Test: Inhibitory effect against anchorage-independent cell growth of NCI-H2228 cells (Test Example 3)
Assay type: cell-based
Conditions: 120 h, spheroid plate, 5 days, CellTiter-Glo
pIC50: −log10 of the molar value.

# Compound, pIC50
records = [
    ("COc1cc(N2CCC(N3CCN(C)CC3)CC2)ccc1Nc1ncnc(Nc2ccccc2S(=O)(=O)NC2CC2)n1", 7.21),
    ("COc1cc(N2CCC3(CCCCN3C)CC2)ccc1Nc1ncnc(Nc2ccccc2S(=O)(=O)C(C)C)n1", 6.87),
    ("COc1cc(N2CCC(N3CCCC3)CC2)ccc1Nc1ncnc(Nc2ccccc2S(=O)(=O)C(C)C)n1", 6.81),
    ("COc1cc(N2CCC(N3CCC(O)C3)CC2)ccc1Nc1ncnc(Nc2ccccc2S(=O)(=O)C(C)C)n1 (stereo not drawn)", 7.02),
    ("COc1cc(N2CCC(N3CCN(C)CC3)CC2)ccc1Nc1ncnc(Nc2ccccc2S(=O)(=O)NC(C)C)n1", 7.21),
    ("COc1cc(N2CCC(N3CCN(C)CC3)CC2)ccc1Nc1ncnc(Nc2ccccc2S(=O)(=O)N(C)C(C)C)n1", 6.90),
    ("COc1cc(N2CCN(C)CC2)ccc1Nc1ncnc(Nc2ccccc2S(=O)(=O)C(C)C)n1", 6.90),
    ("COc1cc(N2CCN(C3CCN(C)CC3)CC2)ccc1Nc1nc(Nc2ccccc2S(=O)(=O)C(C)C)c2ccccc2n1", 5.98),
    ("CNS(=O)(=O)c1ccccc1Nc1ncnc(Nc2ccc(N3CCC(N4CCN(C)CC4)CC3)cc2OC)n1", 7.06),
]

====

The molecules listed here are annotated with their IC50.
Molecular target: EML4-ALK fusion protein v1 (Homo sapiens, UniProt Q9UM73, D1529E/I1461V/K1491R)
Construct: FLAG (N); made in house
Sequence (Q9UM73 with tags, fused parts or gaps I1461V/K1491R/D1529E): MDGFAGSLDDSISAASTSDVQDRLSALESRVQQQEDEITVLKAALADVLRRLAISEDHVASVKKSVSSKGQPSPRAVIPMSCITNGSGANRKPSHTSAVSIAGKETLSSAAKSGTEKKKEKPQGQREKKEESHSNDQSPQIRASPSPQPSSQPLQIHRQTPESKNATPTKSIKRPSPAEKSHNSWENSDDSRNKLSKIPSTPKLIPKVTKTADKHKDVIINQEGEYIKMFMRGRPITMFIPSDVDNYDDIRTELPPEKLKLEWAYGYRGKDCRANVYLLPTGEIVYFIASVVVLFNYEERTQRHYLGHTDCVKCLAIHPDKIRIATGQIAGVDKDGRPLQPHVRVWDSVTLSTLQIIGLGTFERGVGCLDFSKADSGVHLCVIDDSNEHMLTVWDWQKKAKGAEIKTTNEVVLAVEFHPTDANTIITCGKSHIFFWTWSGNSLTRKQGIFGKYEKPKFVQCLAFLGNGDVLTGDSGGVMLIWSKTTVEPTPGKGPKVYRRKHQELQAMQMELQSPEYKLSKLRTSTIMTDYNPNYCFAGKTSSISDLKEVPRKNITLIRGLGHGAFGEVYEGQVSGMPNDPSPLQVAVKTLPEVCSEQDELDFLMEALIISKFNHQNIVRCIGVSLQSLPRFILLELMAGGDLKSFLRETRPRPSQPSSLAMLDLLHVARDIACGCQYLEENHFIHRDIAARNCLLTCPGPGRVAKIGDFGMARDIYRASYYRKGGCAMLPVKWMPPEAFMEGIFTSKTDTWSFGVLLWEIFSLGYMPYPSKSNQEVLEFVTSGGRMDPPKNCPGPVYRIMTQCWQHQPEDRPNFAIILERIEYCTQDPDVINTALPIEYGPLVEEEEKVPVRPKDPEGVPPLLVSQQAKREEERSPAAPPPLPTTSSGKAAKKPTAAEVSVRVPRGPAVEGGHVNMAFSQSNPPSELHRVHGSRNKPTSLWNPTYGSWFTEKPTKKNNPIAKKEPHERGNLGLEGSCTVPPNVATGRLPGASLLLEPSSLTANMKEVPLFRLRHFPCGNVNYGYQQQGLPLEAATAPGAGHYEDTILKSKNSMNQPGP
Experiment: Inhibitory activity against the kinase activity of EML4-ALK fusion protein v1 (Test Example 1)
Assay type: biochemical
Conditions: ATP 100 μM, reaction 1 hour, HTRF KinEASE-TK

# Molecule, IC50 [nM]
rows = [
    ("COc1cc(N2CC(N3CCN(C)CC3)C2)ccc1Nc1ncnc(Nc2ccccc2S(=O)(=O)C(C)C)n1 [Example 176]", 150),
    ("COc1cc(N2CCC(N3CCCC3)CC2)ccc1Nc1ncnc(Nc2ccccc2S(=O)(=O)C(C)C)n1 [Example 58]", 25),
    ("CNS(=O)(=O)c1ccccc1Nc1ncnc(Nc2ccc(N3CCC(N4CCN(C)CC4)CC3)cc2OC)n1 [Example 7]", 50),
    ("COc1cc(N2CCC(N3CCN(C)CC3)CC2)ccc1Nc1ncnc(Nc2ccccc2S(=O)(=O)NC2CC2)n1 [Example 171]", 33),
    ("COc1cc(N2CCC(N3CCN(C)CC3)CC2)ccc1Nc1nc(Nc2ccccc2S(=O)(=O)C(C)C)c2ccccc2n1 [Example 1]", 42),
    ("COc1cc(N2CCC3(CCCN3C)CC2)ccc1Nc1ncnc(Nc2ccccc2S(=O)(=O)C(C)C)n1 [Example 120]", 74),
    ("CCNS(=O)(=O)c1ccccc1Nc1ncnc(Nc2ccc(N3CCC(N4CCN(C)CC4)CC3)cc2OC)n1 [Example 123]", 33),
    ("COc1cc(N2CCC(N3CCN(C)CC3)CC2)ccc1Nc1ncnc(Nc2ccccc2S(=O)(=O)N(C)C)n1 [Example 128]", 2.3),
    ("COc1cc(N2CCNCC2)ccc1Nc1ncnc(Nc2ccccc2S(=O)(=O)C(C)C)n1 [Example 72]", 51),
    ("COc1cc(N2CCC3(CCCCN3C)CC2)ccc1Nc1ncnc(Nc2ccccc2S(=O)(=O)C(C)C)n1 [Example 12]", 61),
]

Source of measurements: patent US20130096100A1
